# Experimental target: Human SARS Coronavirus Spike S1 Subunit Protein (His Tag) (Sino 40150-V08B1) (Human SARS Coronavirus, UniProt P59594 14-667)
# Method summary: Luminex, supernatant
binders and their reported MFI
Record the value in MFI, omitting the unit from your answer.

binder="mAb10935 (antibody, V domains shown) VH: EVQLVESGGGLVQPGGSLRLSCAASGFTVSSNYMSWVRQAPGKGLEWVSLIYSGGSTYYADSVKGRFTISRHNSKNTLYLQMNSLRSEDTAVYYCARVPLGDYYYGMDVWGQGTTVTVSS VL: DIQMTQSPSSLSASVGDRVTITCQASQDINKYLNWYQQKPGKAPKLLIYDASNLETGVPSRFSGSGSGTDFTFTISSLQPEDIATYYCQQSDNLPLTFGGGTKVEIKR" measurement=21

# context switch: different binder, same MFI
### Prompt Respond only with MFI recorded for mAb10986 (antibody, V domains shown) VH: EVQLVESGGGLVQPGGSLRLSCAASEFTVSSNYMSWVRQAPGKGLEWVSVIYSGGSTFYADSVKGRFTISRDNSKNTLYLQMNSLRAEDTAVYYCARALPYGDLHFDYWGQGTLVTVSS VL: QSVLTQPPSVSGAPGQRVTISCTGSSSNIGTGYDVHWYQQLPGTAPKLLIYGNTNRPSGVPDRFSGSKSGTSASLAITGLQAEDEADYYCQSYDSSLSDSYVFGTGTKVTVLG
### Response 21
